Assay: Antioxidant activity assessed as trolox equivalents of ABTS radical scavenging activity by TEAC assay
Assay type: functional
Could you please report measured Activity for the items listed next?
Please respond with just the number, no unit label.

Problem: Sample COc1cc(O[C@@H]2O[C@H](CO[C@@H]3O[C@H](CO[C@@H]4O[C@H](CO[C@@H]5O[C@H](CO)[C@@H](O)[C@H](O)[C@H]5O)[C@@H](O)[C@H](O)[C@H]4O)[C@@H](O)[C@H](O)[C@H]3O)[C@@H](O)[C@H](O)[C@H]2O)ccc1O — what was its Activity?
Result: 0.88

Problem: # get_value(readout='Activity', item= COc1cc(O[C@@H]2O[C@H](CO[C@@H]3O[C@H](CO[C@@H]4O[C@H](CO)[C@@H](O)[C@H](O)[C@H]4O)[C@@H](O)[C@H](O)[C@H]3O)[C@@H](O)[C@H](O)[C@H]2O)ccc1O )
Result: 0.97

Problem: May I ask what Activity has been recorded for OC[C@H]1O[C@@H](OC[C@H]2O[C@@H](OC[C@H]3O[C@@H](Oc4ccc(O)cc4)[C@H](O)[C@@H](O)[C@@H]3O)[C@H](O)[C@@H](O)[C@@H]2O)[C@H](O)[C@@H](O)[C@@H]1O ?
Result: 1.12

Problem: Which Activity value belongs to COc1cc(O[C@@H]2O[C@H](CO[C@@H]3O[C@H](CO)[C@@H](O)[C@H](O)[C@H]3O)[C@@H](O)[C@H](O)[C@H]2O)ccc1O ?
Result: 0.94

Problem: Sample COc1cc(O[C@@H]2O[C@H](CO[C@@H]3O[C@H](CO[C@@H]4O[C@H](CO)[C@@H](O)[C@H](O)[C@H]4O)[C@@H](O)[C@H](O)[C@H]3O)[C@@H](O)[C@H](O)[C@H]2O)cc(OC)c1O — what was its Activity?
Result: 0.8

Problem: Using the record for COc1cc(O[C@@H]2O[C@H](CO[C@@H]3O[C@H](CO)[C@@H](O)[C@H](O)[C@H]3O)[C@@H](O)[C@H](O)[C@H]2O)cc(OC)c1O , report its Activity.
Result: 0.85

Problem: Give its Activity value. Item: COc1cc(O)ccc1O[C@@H]1O[C@H](CO[C@@H]2O[C@H](CO[C@@H]3O[C@H](CO)[C@@H](O)[C@H](O)[C@H]3O)[C@@H](O)[C@H](O)[C@H]2O)[C@@H](O)[C@H](O)[C@H]1O
Result: 1.76
